From: ChEMBL document CHEMBL1201862

tested on: SK-MEL-2; assay: NCI tumour cell line growth inhibition, 48 h
Active and inactive are the calls of the source. No stated cut-off is given here; in the data, active = GI50 up to about 1.1 µM and inactive = higher.
The entries below come with measured GI50 values attached.
assay readout: GI50

molecule | study target | assay readout | result
COC(=O)C(CCS(=O)(=O)CC(=O)C(=O)Nc1cccc(C(C)=O)c1)C(=O)OC | SK-MEL-2 | GI50 | > 100 µM (inactive)
Cc1cc(OC2OC(CO)C(O)C(O)C2O)ccc1O (stereo not given) | SK-MEL-2 | GI50 | > 100 µM (inactive)
O=C(/C=C/c1ccc(OCc2ccccc2)cc1)NCc1ccc(C(=O)NCCc2c[nH]c3ccccc23)cc1 | SK-MEL-2 | GI50 | 31 µM (inactive)
O=C1/C(=C/c2cc(O)c(O)c(O)c2)Oc2cc(O)cc(OC3OC(CO)C(O)C(O)C3O)c21 (stereo not given) | SK-MEL-2 | GI50 | 16.2 µM (inactive)
O/N=N/c1ccc(-c2ccccc2)cn1 | SK-MEL-2 | GI50 | 31.6 µM (inactive)
